- Target Entity: CDK9/CycT1 (Homo sapiens (Human), UniProt P50750)
- Sequence (P50750 whole entry): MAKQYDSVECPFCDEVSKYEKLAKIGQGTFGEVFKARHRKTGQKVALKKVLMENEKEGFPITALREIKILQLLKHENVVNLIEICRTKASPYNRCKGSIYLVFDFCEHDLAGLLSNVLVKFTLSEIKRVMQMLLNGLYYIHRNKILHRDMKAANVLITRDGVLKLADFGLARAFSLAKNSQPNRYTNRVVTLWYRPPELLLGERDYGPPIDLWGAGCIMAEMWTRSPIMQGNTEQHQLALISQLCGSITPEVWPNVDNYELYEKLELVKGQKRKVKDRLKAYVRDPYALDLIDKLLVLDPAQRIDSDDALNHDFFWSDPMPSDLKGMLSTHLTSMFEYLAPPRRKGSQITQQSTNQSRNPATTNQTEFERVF
- Sequence (O60563 whole entry partner): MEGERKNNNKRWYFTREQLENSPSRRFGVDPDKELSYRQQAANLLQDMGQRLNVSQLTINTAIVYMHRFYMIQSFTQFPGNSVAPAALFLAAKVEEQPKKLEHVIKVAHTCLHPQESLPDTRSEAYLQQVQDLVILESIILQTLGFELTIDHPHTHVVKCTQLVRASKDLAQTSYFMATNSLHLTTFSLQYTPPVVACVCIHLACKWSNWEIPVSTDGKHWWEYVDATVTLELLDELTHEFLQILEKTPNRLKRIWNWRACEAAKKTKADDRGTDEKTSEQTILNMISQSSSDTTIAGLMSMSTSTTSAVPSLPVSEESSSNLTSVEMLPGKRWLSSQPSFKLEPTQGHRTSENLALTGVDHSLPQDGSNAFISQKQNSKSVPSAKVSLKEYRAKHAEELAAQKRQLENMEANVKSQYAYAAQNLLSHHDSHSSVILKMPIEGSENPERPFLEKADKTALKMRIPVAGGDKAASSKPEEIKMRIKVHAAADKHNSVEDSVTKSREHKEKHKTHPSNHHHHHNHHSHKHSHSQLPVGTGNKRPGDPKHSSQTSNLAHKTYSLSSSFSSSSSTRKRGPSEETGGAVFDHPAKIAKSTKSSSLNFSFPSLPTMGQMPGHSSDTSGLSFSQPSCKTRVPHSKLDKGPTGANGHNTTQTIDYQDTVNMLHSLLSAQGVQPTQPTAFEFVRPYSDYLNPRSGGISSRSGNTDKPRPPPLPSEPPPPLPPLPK
- Assay Notes: ADP-Glo Kinase Assay
pIC50: −log10 of the molar value.
Experimental Endpoint: pIC50

Query (compound): O[C@@H]1CNCC[C@H]1CNc1nccc(-c2ccn3ncc(C4CC4)c3n2)n1 (relative stereo) ; field requested: pIC50
> 6.00

Also "c1cc(-c2ccn3ncc(C4CC4)c3n2)nc(N[C@H]2CC[C@H](NC3CCOCC3)CC2)n1" ?
5.30 to 6.00

Request: CC(C)c1cnn2ccc(-c3ccnc(NC[C@@H]4CCNC[C@H]4O)n3)nc12 (relative stereo)
> 6.00

Try "c1cc(-c2ccn3ncc(C4CCC4)c3n2)nc(N[C@H]2CC[C@H](NC3CCOCC3)CC2)n1" next.
5.30 to 6.00
